Sourced from the supplement of paper PMC7877785

- measurementDescription: self-splicing fitness, log relative to wild type (ln ratio); higher = more splicing; Tetrahymena group I intron in knt gene, E. coli kanamycin selection, DiMSum; sequences stand for … in CUCUCU…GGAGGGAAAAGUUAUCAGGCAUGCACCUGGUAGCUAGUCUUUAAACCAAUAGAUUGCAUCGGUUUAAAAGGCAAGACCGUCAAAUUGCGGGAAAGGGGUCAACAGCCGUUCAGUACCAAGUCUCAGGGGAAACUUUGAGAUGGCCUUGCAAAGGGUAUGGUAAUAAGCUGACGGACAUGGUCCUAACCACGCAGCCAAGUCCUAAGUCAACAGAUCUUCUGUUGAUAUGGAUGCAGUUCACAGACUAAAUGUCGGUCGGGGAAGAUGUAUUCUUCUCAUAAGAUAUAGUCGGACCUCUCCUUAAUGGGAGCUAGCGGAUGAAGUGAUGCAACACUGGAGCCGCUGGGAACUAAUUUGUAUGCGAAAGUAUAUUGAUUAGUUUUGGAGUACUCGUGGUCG;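 further: selection with 25 µg/mL kanamycin versus none on LB agar overnight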
- experimentalConditions: 37 °C
I would appreciate it if you labelled entries satisfied when self-splicing fitness (ln) is -0.9 or higher, otherwise not satisfied.

-- ask Dear colleague, could you confirm whether `UCUGAGCAAUAUUACGUUUA` has self-splicing fitness (ln) at or above -0.9?
-- reply not satisfied

-- ask Has `UAGUAGCAAUAUUACGGGUC` a recorded self-splicing fitness (ln) greater than or equal to -0.9?
-- reply not satisfied

-- ask Dear colleague, could you confirm whether `CCCCAGCAAUAUUACGCGUC` has self-splicing fitness (ln) at or above -0.9?
-- reply not satisfied

-- ask Dear colleague, could you confirm whether `GUUCAGCAAUAUUACGUUUC` has self-splicing fitness (ln) at or above -0.9?
-- reply satisfied

-- ask // inclusive: self-splicing fitness (ln) at least -0.9? input: `AAGCAGCAAUAUUACGUUGC`
-- reply not satisfied

-- ask Item `GAGAAGCAAUAUUACGUACA` with self-splicing fitness (ln) of -0.9 or above?
-- reply satisfied

-- ask Can `UCGUAGCAAUAUUACGCCGG` be said to have self-splicing fitness (ln) at or above -0.9?
-- reply not satisfied

-- ask Decide: is the reported value of self-splicing fitness (ln) for `AGAGAGCAAUAUUACGAUUU` equal to or greater than -0.9?
-- reply satisfied

-- ask Please check the record `CUGCAGCAAUAUUACGCCGA` and state if its self-splicing fitness (ln) is at or above -0.9.
-- reply not satisfied

-- ask Hello, I need to know if `GUGCAGCAAUAUUACGUAAG` has measured self-splicing fitness (ln) not below -0.9. Thanks!
-- reply satisfied
